procedure-summary: Cmax in male C57BL/6 mouse at 300 mg/kg, sc measured after 24 hrs by LC-MS/MS analysis
Format: ADME, organism-based
condition-label: in vivo
measured-endpoint: Cmax (µM)
Please give a number only; it is taken to be in µM.

Given item `O=C(O)c1cc(CN2CC(Oc3ccc(NS(=O)(=O)c4ccc(-c5ccc(F)cc5)s4)c(C(=O)O)c3)C2)ccc1NS(=O)(=O)c1cnn(-c2ccc(F)cc2)c1` , the value recorded as its Cmax is 502

---

procedure-summary: Inhibition of wildtype Acinetobacter baumannii MsbA preincubated for 30 mins followed by ATP addition and measured after 1 hrs by Transcreener ADP2 F1 assay
pEC50: −log10 of the molar value.
Kind request: treat 7 as inclusive, so pEC50 at 7 or higher is y, anything lower is n.

Recorded results for 3 compounds are shown here.
>>> df
                                   compound  classification
0  CCCCc1ccc(S(=O)(=O)Nc2ccc(NC(=O)CCC(=O)Nc3ccc(NS(=O)(=O)c4ccc(CCCC)cc4)c(C(N)=O)c3)cc2C(N)=O)cc1               n
1  CCCCc1ccc(S(=O)(=O)Nc2ccc(NC(=O)CCC(=O)Nc3ccc(NS(C)(=O)=O)c(C(=O)O)c3)cc2C(=O)O)cc1               n
2  Cn1nc(-c2ccccc2)cc1S(=O)(=O)Nc1ccc(NC(=O)CCCOc2ccc(NS(=O)(=O)c3cc(-c4ccccc4)nn3C)c(C(=O)O)c2)cc1C(=O)O               y

Prompt: Entry CCCCc1ccc(S(=O)(=O)Nc2ccc(NC(=O)[C@H]3C[C@@H]3C(=O)Nc3ccc(NS(=O)(=O)c4ccc(CCCC)cc4)c(C(=O)O)c3)cc2C(=O)O)cc1 (racemic) : is its pEC50 no less than 7?
Response: n

---

procedure-summary: AUC (0 to infinity) in male C57BL/6 mouse at 300 mg/kg, sc administered 3 times a day with 3 hrs interval and measured after 24 hrs by LC-MS/MS analysis
Format: ADME, organism-based
condition-label: mouse, in vivo, sc, 300 mg/kg, 24 h
measured-endpoint: AUC

Kindly note the recorded AUC for `O=C(O)c1cc(CN2CC(Oc3ccc(NS(=O)(=O)c4cnn(-c5ccc(F)cc5)c4)c(C(=O)O)c3)C2)ccc1NS(=O)(=O)c1cnn(-c2ccc(F)cc2)c1` , which is 22200 µM·h

---

Tested on: Acinetobacter baumannii
procedure-summary: Antibacterial activity against Acinetobacter baumannii ATCC19606 incubated for 18 to 20 hrs in presence of 1% of human serum by microbroth dilution method
Assay type: functional
condition-label: time 18-20 hrs
Entries and their measured MIC95 follow.

These recorded examples may help you get a feel for the data.
                               smiles_input  measured_endpoint  observed_measurement
0  CCCCc1ccc(C(=O)Nc2ccc(NC(=O)CCC(=O)Nc3ccc(NS(=O)(=O)c4ccc(CCCC)cc4)c(C(=O)O)c3)cc2C(=O)O)cc1              MIC95              > 200 µM
1  CCCCc1ccc(S(=O)(=O)Nc2ccc(NC(=O)CCC(=O)Nc3ccc(NS(=O)(=O)c4ccc(CCCC)cc4)c(C(=O)NC)c3)cc2C(=O)O)cc1              MIC95              > 200 µM
2  CCCCc1ccc(S(=O)(=O)Nc2ccc(NC(=O)CCC(=O)Nc3ccc(NS(=O)(=O)c4ccc(CCCC)cc4)c(C(=O)O)c3)cc2)cc1              MIC95              > 200 µM
3  CCCCc1ccc(S(=O)(=O)Nc2ccc(C(=O)NCCNC(=O)c3ccc(NS(=O)(=O)c4ccc(CCCC)cc4)c(C(=O)O)c3)cc2C(=O)O)cc1              MIC95              > 200 µM

// `CCCCc1ccc(S(=O)(=O)Nc2ccc(NC(=O)CCC(=O)Nc3ccc(NS(=O)(=O)c4ccc(CCCC)cc4)c(C(=O)O)c3)cc2O)cc1` : MIC95 value = 25 µM

The compound identified as `CCCCc1ccc(S(=O)(=O)N(C)c2ccc(NC(=O)CCC(=O)Nc3ccc(N(C)S(=O)(=O)c4ccc(CCCC)cc4)c(C(=O)O)c3)cc2C(=O)O)cc1` registered its MIC95 at > 200 µM
